# system under test: P2Y purinoceptor 4 (Homo sapiens, UniProt P51582)
# Sequence (P51582 whole entry): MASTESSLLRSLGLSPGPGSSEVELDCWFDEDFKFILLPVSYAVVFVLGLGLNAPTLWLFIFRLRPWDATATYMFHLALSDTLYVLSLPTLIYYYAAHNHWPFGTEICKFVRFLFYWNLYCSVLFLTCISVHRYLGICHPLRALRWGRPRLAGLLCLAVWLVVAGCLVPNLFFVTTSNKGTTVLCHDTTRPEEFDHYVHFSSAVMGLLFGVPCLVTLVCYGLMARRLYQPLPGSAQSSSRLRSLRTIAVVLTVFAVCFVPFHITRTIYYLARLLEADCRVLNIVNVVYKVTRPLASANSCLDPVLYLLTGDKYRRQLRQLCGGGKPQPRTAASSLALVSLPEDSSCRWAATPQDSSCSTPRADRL
# assay protocol: Agonist activity at human recombinant P2Y4 receptor expressed in 1321N1 cells assessed as stimulation of phospholipase C
# Format: functional, cell-based
Recorded EC50 by entry

A selection of reference data follows.
[[record]]
molecule = "O=c1ccn([C@@H]2O[C@H](COP(=O)(O)OP(=O)(O)OP(=O)(O)O)[C@@H](O)[C@H]2O)c(=O)[nH]1 [URIDINE TRIPHOSPHATE]"
property_label = "EC50"
endpoint_value = "73 nM (agonist)"

[[record]]
molecule = "O=C(N[C@@H]1[C@H](O)[C@@H](COP(=O)(O)OP(=O)(O)OP(=O)(O)O)O[C@H]1n1ccc(=O)[nH]c1=S)C(F)(F)F"
property_label = "EC50"
endpoint_value = "8300 nM (agonist)"


Query molecule follows.
Entry N[C@@H]1[C@H](O)[C@@H](COP(=O)(O)OP(=O)(O)OP(=O)(O)O)O[C@H]1n1ccc(=O)[nH]c1=O — recorded EC50 = 1200 nM (agonist)

====

# system under test: P2Y purinoceptor 6 (Homo sapiens, UniProt Q15077)
# Sequence (Q15077 whole entry): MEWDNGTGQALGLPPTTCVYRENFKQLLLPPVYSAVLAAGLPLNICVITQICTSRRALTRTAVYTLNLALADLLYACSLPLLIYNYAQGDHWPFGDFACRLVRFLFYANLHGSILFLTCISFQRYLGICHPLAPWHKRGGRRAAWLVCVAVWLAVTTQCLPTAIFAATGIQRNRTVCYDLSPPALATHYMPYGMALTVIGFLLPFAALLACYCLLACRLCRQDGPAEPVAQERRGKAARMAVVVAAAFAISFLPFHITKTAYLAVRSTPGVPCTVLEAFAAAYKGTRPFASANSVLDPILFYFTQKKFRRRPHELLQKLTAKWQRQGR
# assay protocol: Agonist activity at human recombinant P2Y6 receptor expressed in 1321N1 cells assessed as stimulation of phospholipase C
# Format: functional, cell-based
property label: EC50

A selection of reference data follows.
[[record]]
molecule = "N[C@@H]1[C@H](O)[C@@H](COP(=O)(O)OP(=O)(O)OP(=O)(O)O)O[C@H]1n1ccc(=O)[nH]c1=O"
property_label = "EC50"
endpoint_value = "> 100000 nM"

[[record]]
molecule = "N[C@@H]1[C@H](O)[C@@H](COP(=O)(O)OP(=O)(O)OP(=O)(O)O)O[C@H]1n1ccc(=O)[nH]c1=S"
property_label = "EC50"
endpoint_value = "> 10000 nM"

[[record]]
molecule = "Cc1cn([C@@H]2O[C@H](COP(=O)(O)OP(=O)(O)OP(=O)(O)O)[C@@H](O)[C@H]2O)c(=O)[nH]c1=O [THYMIDINE_TRIPHOSPHATE]"
property_label = "EC50"
endpoint_value = "140 nM (agonist)"

[[record]]
molecule = "O=c1ccn([C@@H]2O[C@H](COP(=O)(O)OP(=O)(O)OP(=O)(O)O)[C@@H](O)[C@H]2O)c(=S)[nH]1"
property_label = "EC50"
endpoint_value = "1500 nM (agonist)"

[[record]]
molecule = "[N-]=[N+]=Nc1cn([C@@H]2O[C@H](COP(=O)(O)OP(=O)(O)OP(=O)(O)O)[C@@H](O)[C@H]2O)c(=O)[nH]c1=O"
property_label = "EC50"
endpoint_value = "467 nM (agonist)"


Entry Nc1cn([C@@H]2O[C@H](COP(=O)(O)OP(=O)(O)OP(=O)(O)O)[C@@H](O)[C@H]2O)c(=O)[nH]c1=O — recorded EC50 = 333 nM (agonist)

====

# system under test: P2Y purinoceptor 2 (Homo sapiens)
# assay protocol: Agonist activity at human recombinant P2Y2 receptor expressed in 1321N1 cells assessed as stimulation of phospholipase C
# Format: functional, cell-based
Recorded EC50 by entry

A selection of reference data follows.
[[record]]
compound = "O=c1[nH]c(=O)n([C@@H]2O[C@H](COP(=O)(O)OP(=O)(O)OP(=O)(O)O)[C@@H](O)[C@H]2O)cc1I"
endpoint_value = "830 nM (agonist)"

[[record]]
compound = "O=C(N[C@@H]1[C@H](O)[C@@H](COP(=O)(O)OP(=O)(O)OP(=O)(O)O)O[C@H]1n1ccc(=O)[nH]c1=S)C(F)(F)F"
endpoint_value = "470 nM (agonist)"

[[record]]
compound = "O=c1ccn([C@@H]2O[C@H](COP(=O)(O)OP(=O)(O)OP(=O)(O)O)[C@@H](O)[C@H]2O)c(=S)[nH]1"
endpoint_value = "35 nM (agonist)"

[[record]]
compound = "[N-]=[N+]=Nc1cn([C@@H]2O[C@H](COP(=O)(O)OP(=O)(O)OP(=O)(O)O)[C@@H](O)[C@H]2O)c(=O)[nH]c1=O"
endpoint_value = "1800 nM (agonist)"


Entry N[C@@H]1[C@H](O)[C@@H](COP(=O)(O)OP(=O)(O)OP(=O)(O)O)O[C@H]1n1ccc(=O)[nH]c1=S — recorded EC50 = 8 nM (agonist)

Entry N[C@@H]1[C@H](O)[C@@H](COP(=O)(O)OP(=O)(O)OP(=O)(O)O)O[C@H]1n1ccc(=O)[nH]c1=O — recorded EC50 = 62 nM (agonist)

Entry CO[C@@H]1[C@H](O)[C@@H](COP(=O)(O)OP(=O)(O)OP(=O)(O)O)O[C@H]1n1ccc(=O)[nH]c1=O — recorded EC50 = 14300 nM (agonist)

Entry Nc1cn([C@@H]2O[C@H](COP(=O)(O)OP(=O)(O)OP(=O)(O)O)[C@@H](O)[C@H]2O)c(=O)[nH]c1=O — recorded EC50 = 5600 nM (agonist)

Entry O=c1ccn([C@H]2C[C@H](O)[C@@H](COP(=O)(O)OP(=O)(O)OP(=O)(O)O)O2)c(=O)[nH]1 — recorded EC50 = 1080 nM (agonist)

Entry Nc1ccn([C@H]2C[C@H](O)[C@@H](COP(=O)(O)OP(=O)(O)OP(=O)(O)OP(=O)(O)OC[C@H]3O[C@@H](n4ccc(=O)[nH]c4=O)[C@H](O)[C@@H]3O)O2)c(=O)n1 [DENUFOSOL] — recorded EC50 = 270 nM (agonist)

Entry Cc1cn([C@@H]2O[C@H](COP(=O)(O)OP(=O)(O)OP(=O)(O)O)[C@@H](O)[C@H]2O)c(=O)[nH]c1=O [THYMIDINE_TRIPHOSPHATE] — recorded EC50 = 480 nM (agonist)

====

# system under test: P2Y purinoceptor 4 (Homo sapiens)
# assay protocol: Agonist activity at human recombinant P2Y4 receptor expressed in 1321N1 cells assessed as stimulation of phospholipase C
# Format: functional, cell-based
property label: EC50

A selection of reference data follows.
[[record]]
molecule = "Cc1cn([C@@H]2O[C@H](COP(=O)(O)OP(=O)(O)OP(=O)(O)O)[C@@H](O)[C@H]2O)c(=O)[nH]c1=O [THYMIDINE_TRIPHOSPHATE]"
endpoint_value = "3.9 µM (agonist)"

[[record]]
molecule = "O=c1ccn([C@@H]2O[C@H](COP(=O)(O)OP(=O)(O)OP(=O)(O)O)[C@@H](O)[C@H]2O)c(=S)[nH]1"
endpoint_value = "0.35 µM (agonist)"


Query molecule follows.
Entry N[C@@H]1[C@H](O)[C@@H](COP(=O)(O)OP(=O)(O)OP(=O)(O)O)O[C@H]1n1ccc(=O)[nH]c1=S — recorded EC50 = 2.4 µM (agonist)

====

# system under test: P2Y purinoceptor 2 (Homo sapiens, UniProt P41231)
# Sequence (P41231 whole entry): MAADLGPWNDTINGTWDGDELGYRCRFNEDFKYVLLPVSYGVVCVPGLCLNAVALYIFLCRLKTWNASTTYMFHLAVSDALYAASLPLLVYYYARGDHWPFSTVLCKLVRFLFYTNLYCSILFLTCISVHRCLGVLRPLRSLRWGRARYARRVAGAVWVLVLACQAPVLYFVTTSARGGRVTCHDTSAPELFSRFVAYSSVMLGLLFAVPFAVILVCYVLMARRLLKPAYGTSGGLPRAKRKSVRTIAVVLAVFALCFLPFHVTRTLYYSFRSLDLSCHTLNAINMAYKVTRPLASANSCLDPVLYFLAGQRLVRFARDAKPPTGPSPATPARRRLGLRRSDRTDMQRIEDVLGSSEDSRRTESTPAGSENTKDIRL
# assay protocol: Agonist activity at human recombinant P2Y2 receptor expressed in 1321N1 cells assessed as stimulation of phospholipase C
# Assay type: functional, cell-based
property label: EC50

[[record]]
molecule = "O=c1ccn([C@@H]2O[C@H](COP(=O)(O)OP(=O)(O)OP(=O)(O)OP(=O)(O)OC[C@H]3OC(O)[C@H](O)[C@@H]3O)[C@@H](O)[C@H]2O)c(=O)[nH]1 (stereo not given in full)"
property_label = "EC50"
endpoint_value = "1880 nM (agonist)"

[[record]]
molecule = "O=c1ccn([C@@H]2O[C@H](COP(=O)(O)OP(=O)(O)OP(=O)(O)S)[C@@H](O)[C@H]2O)c(=O)[nH]1 (stereo not given in full)"
property_label = "EC50"
endpoint_value = "240 nM (agonist)"

[[record]]
molecule = "O=c1ccn([C@@H]2O[C@H](COP(=O)(O)OP(=O)(O)OP(=O)(O)O)[C@@H](O)[C@H]2O)c(=O)[nH]1 [URIDINE TRIPHOSPHATE]"
property_label = "EC50"
endpoint_value = "49 nM (agonist)"

[[record]]
molecule = "O=c1[nH]c(=O)n([C@@H]2O[C@H](COP(=O)(O)OP(=O)(O)OP(=O)(O)O)[C@@H](O)[C@H]2O)cc1Br"
property_label = "EC50"
endpoint_value = "750 nM (agonist)"


Query molecule follows.
Entry CC(=O)N[C@@H]1[C@H](O)[C@@H](COP(=O)(O)OP(=O)(O)OP(=O)(O)O)O[C@H]1n1ccc(=O)[nH]c1=S — recorded EC50 = 6500 nM (agonist)

Values from ChEMBL document CHEMBL1142934
